Where do the numbers come from? From BindingDB's records for doi:10.1016/j.bmc.2016.12.017.

assay: Inhibition of hepatitis B virus capsid assembly infected in human HepG2.215 cells assessed as reduction in viral DNA replication measured on day 7 by real time PCR analysis
Assignment: determine reported pEC50 for the given compounds.
Give only the number. pEC50 is defined as minus log10 of concentration in molar units.

**Q:** Report pEC50 for CCOC(=O)C1=C(CN2CC[S+]([O-])CC2)NC(c2nccs2)=NC1c1ccc(F)cc1Cl (stereo not drawn)
**A:** 7.00

**Q:** Report pEC50 for CCOC(=O)C1=C(CN2CCOCC2)NC(c2ncn(C)n2)=NC1c1ccc(F)cc1Br (stereo not drawn)
**A:** 5.37

**Q:** Report pEC50 for C[C@H](Cn1cnc2c(N)ncnc21)OCP(=O)(O)O
**A:** 6.62

**Q:** Report pEC50 for CCOC(=O)C1=C(CN2CCOCC2)NC(c2ncc(F)cc2F)=NC1c1ccc(F)cc1Br (stereo not drawn)
**A:** 8.22

**Q:** Report pEC50 for CCOC(=O)C1=C(CN2CCSCC2)NC(c2nccs2)=NC1c1ccc(F)cc1Cl (stereo not drawn)
**A:** 6.60

**Q:** Report pEC50 for COC(=O)C1=C(C)NC(c2nccs2)=N[C@H]1c1ccc(F)cc1Cl
**A:** 7.00

**Q:** Report pEC50 for CCOC(=O)C1=C(CN2CCOCC2)NC(c2nccs2)=NC1c1ccccc1Br (stereo not drawn)
**A:** 8.00

**Q:** Report pEC50 for CCOC(=O)C1=C(CN2CCOCC2)NC(c2nccn2C)=NC1c1ccc(F)cc1Br (stereo not drawn)
**A:** 7.70
